Numbers sourced from patent US20100292185A1.

Tested on: K. pneumoniae expressing the Class A carbapenemase KPC-2
Test: microbe, parasite or virus in culture
Type: cell-based
Conditions: in presence of Ceftazidime 8 μg/ml (Examples 1-56)
Counter-ions that a name gives are not always drawn.
MIC of example compound, K. pneumoniae KPC-2 vs 0.1 µg/mL: less than gives true (1); not less than gives false (0).

Recorded results for 2 compounds are shown here.
INSERT INTO assay_data (compound, category) VALUES
  ('CNCc1ccc(C(=O)N[C@@H](Cc2cccc(C(=O)O)c2O)B(O)O)cc1.Cl', 'true (1)'),
  ('CC(C)(O/N=C(\C(=O)N[C@@H](Cc1cccc(C(=O)O)c1O)B(O)O)c1csc(NC(=O)CN)n1)C(=O)O.Cl', 'false (0)');

Query: Regarding O=C(N[C@@H](Cc1cccc(C(=O)O)c1O)B(O)O)c1ccc(CN2CCNCC2)cc1 [Example 5, Hydrochloride] , kindly confirm whether its MIC of example compound, K. pneumoniae KPC-2 is beneath 0.1 µg/mL.
Reply: true (1)

Query: Regarding Cl.Nc1nc(/C(=N/O)C(=O)N[C@@H](Cc2cccc(C(=O)O)c2O)B(O)O)cs1 , kindly confirm whether its MIC of example compound, K. pneumoniae KPC-2 is beneath 0.1 µg/mL.
Reply: false (0)

Query: Regarding NCc1ccc(CC(=O)N[C@@H](Cc2cccc(C(=O)O)c2O)B(O)O)cc1 , kindly confirm whether its MIC of example compound, K. pneumoniae KPC-2 is beneath 0.1 µg/mL.
Reply: true (1)

Query: Regarding CC[N+](CC)(CC)Cc1ccc(C(=O)N[C@@H](Cc2cccc(C(=O)O)c2O)B(O)O)cc1 , kindly confirm whether its MIC of example compound, K. pneumoniae KPC-2 is beneath 0.1 µg/mL.
Reply: false (0)

Query: Regarding NCCNCc1ccc(CC(=O)N[C@@H](Cc2cccc(C(=O)O)c2O)B(O)O)cc1 , kindly confirm whether its MIC of example compound, K. pneumoniae KPC-2 is beneath 0.1 µg/mL.
Reply: true (1)
